# TEST DETAILS: Tmax in human at 0.3 to 300 mg
# Assay type: ADME, organism-based
# CONDITIONS: in vivo
EXPERIMENTAL READOUT: Tmax (min)
Write the value in min as a bare number.

Query: Tell me Tmax reported for O=C([C@@H]1C[C@H](N2CCN(c3ncccn3)CC2)CN1)N1CCC(F)(F)C1 [GOSOGLIPTIN]
Result: 30

###

# TEST DETAILS: Bioavailability in cynomolgus monkey at 1 mg/kg, iv and 1 mg/kg, po
# Assay type: ADME, organism-based, Macaca fascicularis
# CONDITIONS: in vivo
EXPERIMENTAL READOUT: bioavailability (%)
Write the value in % as a bare number.

Query: Tell me bioavailability reported for "O=C([C@@H]1C[C@H](N2CCN(c3ncccn3)CC2)CN1)N1CCC(F)(F)C1"
Result: 71

###

# TEST DETAILS: Bioavailability in dog at 1 mg/kg, iv and 1 mg/kg, po
# Format: ADME, organism-based, Canis lupus familiaris
# CONDITIONS: in vivo
EXPERIMENTAL READOUT: bioavailability (%)
Write the value in % as a bare number.

Query: Tell me bioavailability reported for "O=C([C@@H]1C[C@H](N2CCN(c3ncccn3)CC2)CN1)N1CCC(F)(F)C1"
Result: 95

###

# TESTED TARGET: Prolyl endopeptidase (Homo sapiens)
# Sequence (P48147 whole entry): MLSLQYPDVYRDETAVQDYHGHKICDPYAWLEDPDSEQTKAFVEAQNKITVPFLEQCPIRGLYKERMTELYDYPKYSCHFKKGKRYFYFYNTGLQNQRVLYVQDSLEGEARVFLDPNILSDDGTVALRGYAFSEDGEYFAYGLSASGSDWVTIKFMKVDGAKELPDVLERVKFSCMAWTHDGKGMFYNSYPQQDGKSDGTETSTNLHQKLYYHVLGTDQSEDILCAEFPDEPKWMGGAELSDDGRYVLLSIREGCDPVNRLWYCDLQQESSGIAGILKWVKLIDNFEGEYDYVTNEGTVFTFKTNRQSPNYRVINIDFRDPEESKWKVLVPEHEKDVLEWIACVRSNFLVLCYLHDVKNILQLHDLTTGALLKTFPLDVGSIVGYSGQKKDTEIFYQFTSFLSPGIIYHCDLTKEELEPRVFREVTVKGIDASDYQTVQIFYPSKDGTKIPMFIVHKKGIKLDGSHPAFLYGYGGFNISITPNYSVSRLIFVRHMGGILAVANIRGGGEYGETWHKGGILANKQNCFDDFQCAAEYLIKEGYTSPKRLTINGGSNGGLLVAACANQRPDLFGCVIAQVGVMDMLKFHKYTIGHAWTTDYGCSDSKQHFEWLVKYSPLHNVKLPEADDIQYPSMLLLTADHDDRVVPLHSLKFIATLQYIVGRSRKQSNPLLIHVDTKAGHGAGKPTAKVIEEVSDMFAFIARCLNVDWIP
EXPERIMENTAL READOUT: IC50

Query: State the measured IC50 (Prolyl endopeptidase (Homo sapiens)) of "O=C([C@@H]1C[C@H](N2CCN(c3ncccn3)CC2)CN1)N1CCC(F)(F)C1"
Result: > 30 µM

###

# TEST DETAILS: in vivo
# CONDITIONS: Sprague-Dawley, rat, po, 5 mg/kg
# Description: Cmax in Sprague-Dawley rat at 5 mg/kg, po
I'd appreciate it if you could supply Cmax values for the items below.

Query: Tell me Cmax reported for O=C([C@@H]1C[C@H](N2CCN(c3ncccn3)CC2)CN1)N1CCC(F)(F)C1 [GOSOGLIPTIN]
Result: 1410 ng/mL

Query: Tell me Cmax reported for "N#Cc1cccnc1N1CCN([C@@H]2CN[C@H](C(=O)N3CCC(F)(F)C3)C2)CC1"
Result: 237 ng/mL

Query: Tell me Cmax reported for "O=C([C@@H]1C[C@H](N2CCN(c3ncccn3)CC2)CN1)N1C[C@@H](F)[C@@H](F)C1"
Result: 1820 ng/mL

###

# TEST DETAILS: Fraction unbound in human
# Type: ADME
EXPERIMENTAL READOUT: fraction unbound
Lab note: jot down the number only; don't add units.

Query: Tell me fraction unbound reported for "O=C([C@@H]1C[C@H](N2CCN(c3ncccn3)CC2)CN1)N1CCC(F)(F)C1"
Result: 0.8

###

# TESTED TARGET: Dipeptidyl peptidase 3 (Homo sapiens, UniProt Q9NY33)
# Sequence (Q9NY33 whole entry): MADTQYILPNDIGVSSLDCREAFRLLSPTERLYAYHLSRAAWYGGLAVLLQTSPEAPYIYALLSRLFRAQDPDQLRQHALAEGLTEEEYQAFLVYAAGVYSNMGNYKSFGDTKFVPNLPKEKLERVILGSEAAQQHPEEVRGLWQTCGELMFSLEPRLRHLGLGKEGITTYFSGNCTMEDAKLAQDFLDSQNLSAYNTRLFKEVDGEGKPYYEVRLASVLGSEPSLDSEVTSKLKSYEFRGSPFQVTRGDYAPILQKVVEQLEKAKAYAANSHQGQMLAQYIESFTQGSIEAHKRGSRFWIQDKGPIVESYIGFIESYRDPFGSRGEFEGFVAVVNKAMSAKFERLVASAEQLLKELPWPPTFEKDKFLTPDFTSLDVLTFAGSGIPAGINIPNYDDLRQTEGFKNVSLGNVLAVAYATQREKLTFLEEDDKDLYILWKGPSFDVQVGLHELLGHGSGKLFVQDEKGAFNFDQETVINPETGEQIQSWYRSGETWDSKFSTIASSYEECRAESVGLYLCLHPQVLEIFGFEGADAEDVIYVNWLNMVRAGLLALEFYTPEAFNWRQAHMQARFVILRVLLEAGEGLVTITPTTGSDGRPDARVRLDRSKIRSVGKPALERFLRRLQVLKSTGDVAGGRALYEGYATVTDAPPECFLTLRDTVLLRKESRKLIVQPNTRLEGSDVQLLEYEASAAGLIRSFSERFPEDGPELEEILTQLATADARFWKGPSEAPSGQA
# TEST DETAILS: Inhibition of DPP3 in human erythrocytes
EXPERIMENTAL READOUT: IC50

Query: Tell me IC50 reported for "O=C([C@@H]1C[C@H](N2CCN(c3ncccn3)CC2)CN1)N1CCC(F)(F)C1"
Result: > 30 µM

These data points were gathered from ChEMBL document CHEMBL1138584.
